The measurements presented in this section are drawn from patent US20250179047A1.

# targetOfAssay: BCL2 G101V (Homo sapiens, UniProt P10415, G101V)
# measurementDescription: TR-FRET competitive binding assay, BCL2 G101V
# conditions: BCL2 G101V; Ki determined from IC50; read-out: TR_FRET EKI_Bcl2 G101V
valueKind: Ki (nM)

Cc1c(C(=O)N(c2ccc(O)cc2)c2cc(C#N)n(C3CC3)c2C)cc(-c2cc3c(cc2C(=O)N2Cc4ccccc4C[C@H]2C)CN(C(=O)Cc2ccc(OCCN4CCOCC4)cc2)CC3)n1C :: 1.2
Cc1c(N(C(=O)c2cc(-c3cc4c(cc3C(=O)N3Cc5ccccc5C[C@H]3C)CN(C(=O)Cc3ccc(C5CCN(CCF)CC5)c(F)c3)CC4)n(C)c2C)c2ccc(O)cc2)cc(C#N)n1C :: 1.2
Cc1c(N(C(=O)c2cc(-c3cc4c(cc3C(=O)N3Cc5ccccc5C[C@H]3C)CN(C(=O)Cc3cccc(N5CCN6CCOC[C@@H]6C5)c3)CC4)n(C)c2C)c2ccccc2)cc(C#N)n1C :: 1.2
Cc1c(N(C(=O)c2cc(-c3cc4c(cc3C(=O)N3Cc5ccccc5C[C@H]3CN3CCCCC3)CN(C(=O)Cc3ccc(CCN5CCC(F)(F)CC5)cc3)CC4)n(C)c2C)c2ccc(O)cc2)cc(C#N)n1C :: 1.5

----------
# targetOfAssay: BCLXL WT (Homo sapiens (Human))
# Sequence (Q07817 other isoform, or with tags, fused parts or gaps): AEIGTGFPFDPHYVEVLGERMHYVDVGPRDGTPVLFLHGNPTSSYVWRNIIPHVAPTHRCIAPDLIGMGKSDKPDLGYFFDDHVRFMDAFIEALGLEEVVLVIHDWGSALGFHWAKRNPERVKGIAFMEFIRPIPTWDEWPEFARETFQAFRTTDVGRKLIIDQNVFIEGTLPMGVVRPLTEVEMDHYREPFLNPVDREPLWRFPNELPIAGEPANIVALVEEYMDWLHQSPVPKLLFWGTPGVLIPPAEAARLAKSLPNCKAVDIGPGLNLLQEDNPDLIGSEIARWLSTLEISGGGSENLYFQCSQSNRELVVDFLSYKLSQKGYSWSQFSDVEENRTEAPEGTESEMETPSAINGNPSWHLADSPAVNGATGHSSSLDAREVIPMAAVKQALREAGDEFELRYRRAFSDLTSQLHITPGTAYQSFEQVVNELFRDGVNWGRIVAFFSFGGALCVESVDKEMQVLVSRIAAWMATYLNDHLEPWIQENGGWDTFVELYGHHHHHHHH
# measurementDescription: TR-FRET competitive binding assay, BCLXL WT
# conditions: ratio Ki BCLxL / Ki BCL2 WT
valueKind: TR_FRET EKI BCLxL/WT selectivty ratio

# annotated cases, reported TR_FRET EKI BCLxL/WT selectivty ratio shown
COc1ncc(N(C(=O)c2cc(-c3cc4c(cc3C(=O)N3Cc5ccccc5C[C@H]3C)CN(C(=O)Cc3ccc(OCCN5CCOCC5)cc3)CC4)n(C)c2C)c2ccccc2)cc1C#N :: 322.5
Cc1c(N(C(=O)c2cc(-c3cc4c(cc3C(=O)N3Cc5ccccc5C[C@H]3C)CN(C(=O)Cc3cccc(N5CCN(C)CC5)c3)CC4)n(C)c2C)c2ccccc2)cc(C#N)n1C :: 43.3
COc1ncc(N(C(=O)c2cc(-c3cc4c(cc3C(=O)N3Cc5ccccc5C[C@H]3C)CN(C(=O)Cc3ccc(OCCN5CCOCC5)cc3)CC4)n(C)c2C)c2ccc(O)cc2)cc1F :: 26.4
Cc1c(C(=O)N(c2ccccc2)c2cc(C#N)n(C(F)F)c2C)cc(-c2cc3c(cc2C(=O)N2Cc4ccccc4C[C@H]2C)CN(C(=O)Cc2ccc(OCCN4CCOCC4)cc2)CC3)n1C :: 168.6
Cc1c(N(C(=O)c2cc(-c3cc4c(cc3C(=O)N3Cc5ccccc5C[C@H]3C)CN(C(=O)Cc3ccc(C5CCN(CCF)CC5)c(F)c3)CC4)n(C)c2C)c2ccc(O)cc2)cc(C#N)n1C :: 22.4
Cc1c(N(C(=O)c2cc(-c3cc4c(cc3C(=O)N3Cc5ccccc5C[C@H]3CN3CCCC3)CN(C(=O)Cc3ccc(OCCN5CCOCC5)cc3F)CC4)n(C)c2C)c2ccc(O)cc2)cc(C#N)n1C :: 127.8

[I] COc1ccc(N(C(=O)c2cc(-c3cc4c(cc3C(=O)N3Cc5ccccc5C[C@H]3C)CN(C(=O)Cc3ccc(OCCN5CCOCC5)cc3F)CC4)n(C)c2C)c2ccccc2)cn1
[II] Cc1c(N(C(=O)c2cc(-c3cc4c(cc3C(=O)N3Cc5ccccc5C[C@H]3CN(C)C(C)C)CN(C(=O)Cc3ccc(OCCN(C)C5CC5)cc3)CC4)n(C)c2C)c2ccc(O)cc2)cc(C#N)n1C
[III] Cc1c(N(C(=O)c2cc(-c3cc4c(cc3C(=O)N3Cc5ccccc5C[C@H]3C)CN(C(=O)Cc3ccc(OCCN5C[C@H](C)O[C@@H](C)C5)cc3)CC4)n(C)c2C)c2ccc(O)cc2)cc(C#N)n1C (single isomer, unassigned)
[IV] Cc1c(N(C(=O)c2cc(-c3cc4c(cc3C(=O)N3Cc5ccccc5C[C@H]3CN3CC[C@H](C)C3)CN(C(=O)Cc3ccc(OCCN5CCOCC5)cc3F)CC4)n(C)c2C)c2ccc(O)cc2)cc(C#N)n1C
[V] Cc1c(C(=O)N(c2ccc(O)cc2)c2ccc(OC(C)C)c(C#N)c2)cc(-c2cc3c(cc2C(=O)N2Cc4ccccc4C[C@H]2CN2CCCCC2)CN(C(=O)Cc2ccc(OCCN4CCOCC4)cc2F)CC3)n1C
Prompt: Put the molecules in ascending order of TR_FRET EKI BCLxL/WT selectivty ratio. Answer by listing the labels in the requested order.
Response: III, II, IV, V, I
(III: 16.7, II: 27.2, IV: 45.5, V: 100.0, I: 175.0)

----------
# targetOfAssay: BCLXL WT (Homo sapiens (Human))
# measurementDescription: TR-FRET competitive binding assay, BCLXL WT
# conditions: ratio of Ki BCLxL to BCL2 WT
valueKind: TR_FRET EKI BCLxL/WT selectivty

Please review the entries below; each comes with its answer.
Cc1c(C(=O)N(c2ccc(O)cc2)c2cnn(C)c2)cc(-c2cc3c(cc2C(=O)N2Cc4ccccc4C[C@H]2C)CN(C(=O)Cc2ccc(OCCN4CCOCC4)cc2F)CC3)n1C [Example 233] :: 70.3
Cc1c(C(=O)N(c2ccccc2)c2cnn(C)c2)cc(-c2cc3c(cc2C(=O)N2Cc4ccccc4C[C@H]2C)CN(C(=O)Cc2ccc(OCCC4CCN(C)CC4)cc2)CC3)n1C [Example 237] :: 53.1
Cc1c(C(=O)N(c2ccccc2)c2cc(F)cc(C#N)c2)cc(-c2cc3c(cc2C(=O)N2Cc4ccccc4C[C@H]2C)CN(C(=O)Cc2ccc(OCCN4CCOCC4)cc2)CC3)n1C [Example 226] :: 160.8
Cc1cc(OCCN2CCOCC2)c(F)cc1CC(=O)N1CCc2cc(-c3cc(C(=O)N(c4ccc(O)cc4)c4cc(C#N)n(C)c4C)c(C)n3C)c(C(=O)N3Cc4ccccc4C[C@H]3C)cc2C1 [Example 224] :: 17.7

[A] Cc1c(N(C(=O)c2cc(-c3cc4c(cc3C(=O)N3Cc5ccccc5C[C@H]3CN)CN(C(=O)Cc3ccc(OCCN5CCOCC5)cc3F)CC4)n(C)c2C)c2ccc(O)cc2)cc(C#N)n1C [Example 230]
[B] Cc1c(C(=O)N(c2ccccc2)c2cnn(C(F)F)c2)cc(-c2cc3c(cc2C(=O)N2Cc4ccccc4C[C@H]2C)CN(C(=O)Cc2ccc(OCCC4CCN(C)CC4)cc2)CC3)n1C [Example 238]
[C] Cc1cc(OCCN2CCOCC2)c(F)cc1CC(=O)N1CCc2cc(-c3cc(C(=O)N(c4ccccc4)c4cnn(C)c4)c(C)n3C)c(C(=O)N3Cc4ccccc4C[C@H]3C)cc2C1 [Example 225]
Prompt: Order the 3 compounds from highest to lowest TR_FRET EKI BCLxL/WT selectivty. Returns: the labels listed in the requested order.
Response: C, A, B

----------
# targetOfAssay: BCL2 D103Y (Homo sapiens, UniProt P10415, D103Y)
# measurementDescription: TR-FRET competitive binding assay, BCL2 D103Y
# conditions: Ki determined from IC50, read-out: TR_FRET EKI_Bcl2 D103Y
valueKind: Ki (nM)

Worked cases, Ki given:
Cc1c(N(C(=O)c2cc(-c3cc4c(cc3C(=O)N3Cc5ccccc5C[C@H]3CN3CCCCC3)CN(C(=O)Cc3ccc(OCCN(C)C5COC5)cc3)CC4)n(C)c2C)c2ccc(O)cc2)cc(C#N)n1C :: 0.19
COC[C@@H]1Cc2ccccc2CN1C(=O)c1cc2c(cc1-c1cc(C(=O)N(c3ccccc3)c3cnn(C(F)F)c3)c(C)n1C)CCN(C(=O)Cc1ccc(OCCN3CCOCC3)cc1)C2 :: 0.19

[P] Cc1c(N(C(=O)c2cc(-c3cc4c(cc3C(=O)N3Cc5ccccc5C[C@H]3C)CN(C(=O)Cc3ccc(OCCN5C[C@@H](C)O[C@@H](C)C5)cc3)CC4)n(C)c2C)c2ccc(O)cc2)cc(C#N)n1C
[Q] Cc1c(N(C(=O)c2cc(-c3cc4c(cc3C(=O)N3Cc5ccccc5C[C@H]3CN3CCCCC3)CN(C(=O)Cc3ccc(OCC(C)N5CCOCC5)cc3)CC4)n(C)c2C)c2ccc(O)cc2)cc(C#N)n1C (single isomer, unassigned) [Example 128]
[R] Cc1c(N(C(=O)c2cc(-c3cc4c(cc3C(=O)N3Cc5ccccc5C[C@H]3C)CN(C(=O)c3ccccc3)CC4)n(C)c2C)c2ccc(O)cc2)cc(C#N)n1C
[S] COc1ncc(N(C(=O)c2cc(-c3cc4c(cc3C(=O)N3Cc5ccccc5C[C@H]3CN3CCCCC3)CN(C(=O)Cc3ccc(OCCN5CCOCC5)cc3F)CC4)n(C)c2C)c2ccc(O)cc2)cc1F
[T] Cc1c(C(=O)N(c2ccc(O)cc2)c2cc(C#N)n(C(F)F)c2C)cc(-c2cc3c(cc2C(=O)N2Cc4ccccc4C[C@H]2CN2CCCCC2)CN(C(=O)Cc2ccc(OCCN4CCOC(C)C4)cc2F)CC3)n1C (single isomer, unassigned)
Prompt: Let's sort these by Ki, smallest first. Go ahead? State the ranking by listing the labels in the requested order.
Response: S, Q, T, R, P
